# tested_system: native HDL (DGUC-HDL, apoA-I-containing lipoprotein particle) (Homo sapiens) (UniProt P02647)
# Sequence (P02647 whole entry): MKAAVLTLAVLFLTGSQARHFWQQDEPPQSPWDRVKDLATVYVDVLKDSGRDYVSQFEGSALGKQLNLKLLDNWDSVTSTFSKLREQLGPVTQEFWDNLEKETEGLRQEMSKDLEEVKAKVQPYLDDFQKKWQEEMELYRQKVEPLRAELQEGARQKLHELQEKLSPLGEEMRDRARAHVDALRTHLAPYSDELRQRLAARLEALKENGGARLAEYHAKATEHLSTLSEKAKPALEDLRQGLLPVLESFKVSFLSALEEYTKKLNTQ
# experiment_summary: MST
# condition_notes: MST: 100 nM AF647 oligo (90 C 2 min, cooled) mixed 1:1 with ligand in PBS, RT, 5 min; EMSA: 1 uM AF546 oligo, UV 254 nm 15 min on ice, 4-16% NativePAGE, 0.5x …
quantity_name: Kd

CCGGCUAGCUCAGUCGGUAGAGCAUGAGAC [tDR-LysCTT-30]: 3.8 µM
GCGCCGCUGGUGUAGUGGUAUCAUGCAAGA [tDR-GlyCCC-30]: 34 µM
GCAUUGGUGGUUCAGUGGUAGAAUUCUCGC [tDR-GlyGCC-30 (5'-tRH-30)]: 0.259 µM
